Consider compounds characterized by their pIC50 with Aldo-keto reductase family 1 member B1 (Rattus norvegicus).
The meaning of pIC50 here: minus log10 of the concentration in molar units.

**Query** # get_value(readout='pIC50', item= "Cc1nc2ccccc2c(=O)n1-c1ccc(C(=O)O)cc1" )
**Result** 3.67

**Query** Consider the compound shown here: "O=C(O)c1ccc(Nc2nc3ccccc3c(=O)[nH]2)cc1" What is its recorded pIC50?
**Result** 4.30

###

# MEASURED TARGET: Aldo-keto reductase family 1 member B1 (Rattus norvegicus) (UniProt P07943)
# EXPERIMENT SUMMARY: Compound was tested for its ability to inhibit crude aldose reductase obtained from rat lens at 100 uM concentration
Kindly state inhibition for each of the entries shown.
Number in %, nothing else.

**Query** Need inhibition, item "COc1cc2nc(Nc3ccccc3)nc(O)c2cc1OC"
**Result** 17.4

**Query** Name the reported inhibition value associated with the compound "Oc1nc(Nc2ccccc2)nc2ccccc12"
**Result** 5.9

**Query** Reported inhibition for "Oc1nc(NCc2ccccc2)nc2ccccc12" : what is it?
**Result** 3.9

**Query** For the compound "O=S(=O)(O)c1ccc(Nc2nc(O)c3ccccc3n2)cc1" , what inhibition is on record?
**Result** 42.6

**Query** // returns reported inhibition for input "COc1cc2nc(NCc3ccccc3)nc(O)c2cc1OC"
**Result** 22.4
